tested on: HT29 colon; test: NCI-60 one-dose screen, 48 h; settings: 10 µM unless noted
About 83,000 compounds went through this panel and 20% of them were active in at least one assay; those are over-represented in the sample as a whole. Activity calls are given as the source filed them. The calls were made as follows: active = growth percent below 10; inactive = the rest.
Outcomes: YES for active, NO for inactive

Compound | Class Label
COc1cc(C=Nc2cccc(C(=O)O)c2)ccc1N(CCCl)CCCl | NO
COc1ccc(C/C(C)=C(\c2ccc(OCCN3CCOCC3)cc2)c2ccc(OC(=O)Cc3ccccc3)cc2)cc1 | YES
CCCC(C)C1(CC)C(=O)NC(=O)N(C)C1=O (centres undefined) | NO
COc1cc([C@@H]2c3cc4c(cc3[C@H](OC(C)=O)[C@H]3COC(=O)[C@@H]23)OCO4)cc(OC)c1OC | YES
COC(=O)CC12CC(NC(=O)c3csc([C@@H](C[C@H](C(C)C)N(C)C(=O)[C@@H](NC(=O)[C@H]4CCCCN4C)C(C)C)OC(C)=O)n3)(C1)C2 | YES
O=P(N1CC1)(N1CC1)N1CCc2ccccc21 | NO
CCOP1(=O)CC(C)=C(Cl)C(P(=O)(OCC)OCC)C1 (centres undefined) | NO
Fc1ccc2c(c1)c(-c1nc(-c3c[nH]c4ncccc34)cs1)cn2CCCCN1CCCCC1 | YES
COc1cccc2c1c(C(=O)c1ccco1)cn2Cc1ccc(F)cc1 | NO

* * *

tested on: HCT-15 colon; assay: NCI-60 one-dose screen, 48 h (100 = growth as untreated, 0 = no growth, -100 = all killed); details: 10 µM unless noted
This is part of a sample that, as a whole, favours compounds with a hit. Of some 83,000 tested, about 20% had one in any assay.
Measurement Kind: growth (%)

Compound | Val
O=P1(NCCCl)OCCCN1CCCl (configuration not stated) | 98.9
COC(=O)C1CCC(NC(=O)c2csc([C@@H](C[C@H](C(C)C)N(C)C(=O)[C@@H](NC(=O)[C@H]3CCCCN3C)C(C)C)OC(C)=O)n2)CC1 (some centres not stated) | 11.5
CCN(CCO)C(Cc1ccccc1)c1ccccc1 (configuration not stated) | 94.3
CC1(C)N=C(N)N=C(N)N1c1ccc(CCC(=O)Nc2ccc(S(=O)(=O)F)cc2)c(Cl)c1 | 48
CNC12C3C4C1C1C2C3C41C(=O)N[C@H](C(=O)N(C)[C@H](C[C@@H](OC(C)=O)c1nc(C(=O)N[C@@H](Cc2ccccc2)C[C@H](C)C(=O)OC)cs1)C(C)C)C1CC1 (some centres not stated) | 11.4
CCCC(=O)O[C@@H]1C[C@H]2C[C@@H](O[C@@H]3O[C@@H](C)[C@@H](O)[C@@H](O)[C@H]3OC)C[C@@H](C[C@@H](C)/C=C/C=C\C[C@@H]3O[C@@H](C[C@@H]3C)[C@@H](O)C[C@H]3C[C@@]1(O)C(=O)O3)O2 | 54.3
COc1cc(NC(C)CCCNC2CN3CCC2CC3)c2ncccc2c1 (configuration not stated) | 65.8
C[CH2][Sn]([Cl])([Cl])[CH2]C.Oc1ccccc1C=NCCN=Cc1ccccc1O | 104
C[C@@H]1C[C@@]2(C)[C@@H](CC[C@@H]3[C@@H]2CC[C@]2(C)C(=O)CC[C@@H]32)CC1=O | 103
COC(=O)[C@@H](C)C[C@H](Cc1ccccc1)NC(=O)c1csc([C@@H](C[C@H](C(C)C)N(C)C(=O)C2(NC(=O)[C@H]3CCCCN3C)CC2)OC(C)=O)n1 | 20.5
c1ccc(CSC(c2ccccc2)c2ccccc2)cc1 | 106
Cn1cc(C2=C(c3cn(C4CCN(Cc5ccccn5)CC4)c4ccccc34)C(=O)NC2=O)c2ccccc21 | 85.9
CC12CCC=CC1CCC1C2CCC2(C)C(c3ccc(=O)oc3)CCC12O (configuration not stated) | -71.7
COC(=O)C12CC(NC(=O)c3csc([C@@H](C[C@H](C(C)C)N(C)C(=O)[C@@H](NC(=O)[C@H]4CCCCN4C)C(C)C)OC(C)=O)n3)(C1)C2 | 5.8
CC(=O)O[C@H](C[C@H](C(C)C)N(C)C(=O)[C@@H](NC(=O)[C@H]1CCCN1C)C(C)C)c1nc(C(=O)N[C@@H](Cc2ccccc2)C[C@H](C)C(=O)O)c(C)s1 | 17.7
O=c1[nH]cc(N(CCCl)CCCl)c(=O)[nH]1 | 75.6
Fc1ccc(N2COOC3(OOC2)C2CC4CC(C2)CC3C4)cc1 | 88.6
CC[C@H](C)[C@@H]1OC(=O)C(C)(C)[C@H](O)[C@H](Cc2ccccc2)OC(=O)[C@H](C(C)C)OC(=O)[C@@H](NC(=O)c2cccc(NC=O)c2O)[C@@H](C)OC1=O | 36.2
CC(=O)ONc1ccc([N+](=O)[O-])c(C(F)(F)F)c1 | 108
O=C(Nc1ccncc1F)c1cn(CC2CC2)c2ccccc12 | 97.3
O=C1NC(=O)C(=Cc2cn(CCCCCCn3c4ccccc4c(=O)c4ccccc43)c3ccccc23)C(=O)N1 | 75.1
CCCCC1(CCC)C(=O)NC(=S)NC1=O | 93.7
Clc1cccc(NCOOC2(OOCNc3cccc(Cl)c3)CCCCC2)c1 | 70.2
CNC(=O)Oc1ccc(N(C)C)cc1C(C)C | 102
CC(=O)O[C@H](C[C@H](C(C)C)N(C)C(=O)[C@@H](NC(=O)[C@H]1CCCCN1C)C(C)C)c1nc(C(=O)NC2CCC(C(=O)O)CC2)cs1 (some centres not stated) | 70.6
OCCCCCNC1CCCCC1 | 96.1
O=C(O)C1C(C(=O)O)C2(Cl)C(Cl)=C(Cl)C1(Cl)C2(Cl)Cl.[Hg] (configuration not stated) | 87
N#CC1C(C#N)C2CCC1C1C2N1c1ccccc1 (configuration not stated) | 97.9
O=C1Nc2ccccc2C2c3cccn3-c3ccccc3CN12 (configuration not stated) | 38
Nc1nnnc2nc[nH]c12 | 20.9
[Cl][Hg][c]1cc(Br)cc(Br)c1 | 38.2
COc1cc2c(=O)n(C3CCCCCCC3)c3c4cc[nH]c4ncc3c2cc1OC | 62.4
O=[N+]([O-])c1c(Br)sc(Br)c1[N+](=O)[O-] | -13.9
COc1ccc(C(=O)c2cc(OC)c(OC)c(OC)c2)cc1OC(C)=O | 12.7
NC(=O)C(Br)c1ccccc1 (configuration not stated) | 58
CCNc1nc(Cl)nc(NCC)n1 | 112
COc1ccc(S(=O)(=O)Nc2c(/C=C\c3cc(OC)c(OC)c(OC)c3)ccc(OC)c2O)cc1OC | 15.6
